target_or_test_system: T1, truncated cTfR1 of SEQ ID NO:123 (cynomolgus monkey, UniProt Q5RDH6 122-760 (Pongo abelii entry))
T1 construct: also called cynomolgus TfR1
T1 chain: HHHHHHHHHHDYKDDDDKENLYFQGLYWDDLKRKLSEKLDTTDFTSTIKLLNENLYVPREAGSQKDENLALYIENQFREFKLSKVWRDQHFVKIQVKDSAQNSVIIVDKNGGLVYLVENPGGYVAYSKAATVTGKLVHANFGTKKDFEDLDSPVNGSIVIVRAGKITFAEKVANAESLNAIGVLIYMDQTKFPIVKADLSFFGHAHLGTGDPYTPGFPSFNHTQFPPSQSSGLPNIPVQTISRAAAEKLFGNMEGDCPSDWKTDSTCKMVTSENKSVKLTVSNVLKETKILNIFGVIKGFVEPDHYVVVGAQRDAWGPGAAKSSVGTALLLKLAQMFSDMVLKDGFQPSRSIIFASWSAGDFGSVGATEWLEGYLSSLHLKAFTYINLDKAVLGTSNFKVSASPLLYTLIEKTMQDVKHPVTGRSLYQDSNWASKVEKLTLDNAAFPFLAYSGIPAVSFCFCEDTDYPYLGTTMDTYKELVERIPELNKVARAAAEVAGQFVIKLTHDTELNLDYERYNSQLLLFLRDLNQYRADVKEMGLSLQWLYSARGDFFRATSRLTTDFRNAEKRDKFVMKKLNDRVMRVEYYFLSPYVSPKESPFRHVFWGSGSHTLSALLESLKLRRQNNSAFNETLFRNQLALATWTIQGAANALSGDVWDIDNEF
test: SPR, TfR1 amine-coupled, Fab injected, 1:1 fit
endpoint_label: pKd
Note: pKd values are expressed as the negative base-10 logarithm of concentration in M.

Past entries and their recorded results:
{"binder": "h26D3 variant HC4 Fab (Fab, V domains shown, Single-mutant His-tagged Fab; also called D50A) VH: EVQLVQSGAEVKKPGSSVKVSCKASGYIFTDYNMDWVRQAPGQGLEWIGAINPDYDTTSYNEKFKGRATLTVDKSTSTAYMELSSLRSEDTAVYYCARGGYSGSSYYHPMDYWGQGTLVTVSS VL: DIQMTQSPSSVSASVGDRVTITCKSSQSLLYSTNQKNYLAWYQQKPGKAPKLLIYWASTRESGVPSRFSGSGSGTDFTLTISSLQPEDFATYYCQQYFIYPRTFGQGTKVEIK", "pKd": 8.10}
{"binder": "h26D3-Fab (Fab, V domains shown, His-tagged Fab from ExpiCHO; also called humanized 26D3 Fab) VH: EVQLVQSGAEVKKPGSSVKVSCKASGYIFTDYNMDWVRQAPGQGLEWIGDINPDYDTTSYNEKFKGRATLTVDKSTSTAYMELSSLRSEDTAVYYCARGGYSGSSYYHPMDYWGQGTLVTVSS VL: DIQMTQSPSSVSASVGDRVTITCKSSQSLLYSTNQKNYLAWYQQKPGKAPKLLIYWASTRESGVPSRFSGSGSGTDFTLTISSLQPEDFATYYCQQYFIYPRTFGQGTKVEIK", "pKd": 7.92}

Continue with the next binder.
Identify measured pKd associated with h26D3 variant HC10 Fab (Fab, V domains shown, Single-mutant His-tagged Fab; also called Y106A) VH: EVQLVQSGAEVKKPGSSVKVSCKASGYIFTDYNMDWVRQAPGQGLEWIGDINPDYDTTSYNEKFKGRATLTVDKSTSTAYMELSSLRSEDTAVYYCARGGYSGSSAYHPMDYWGQGTLVTVSS VL: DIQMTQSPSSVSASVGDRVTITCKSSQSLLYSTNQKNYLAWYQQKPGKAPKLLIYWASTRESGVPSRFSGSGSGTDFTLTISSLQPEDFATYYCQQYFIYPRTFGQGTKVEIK
8.34
